target_or_system: Glutamate receptor ionotropic, NMDA 2D (Rattus norvegicus, UniProt Q62645)
Sequence (Q62645 whole entry): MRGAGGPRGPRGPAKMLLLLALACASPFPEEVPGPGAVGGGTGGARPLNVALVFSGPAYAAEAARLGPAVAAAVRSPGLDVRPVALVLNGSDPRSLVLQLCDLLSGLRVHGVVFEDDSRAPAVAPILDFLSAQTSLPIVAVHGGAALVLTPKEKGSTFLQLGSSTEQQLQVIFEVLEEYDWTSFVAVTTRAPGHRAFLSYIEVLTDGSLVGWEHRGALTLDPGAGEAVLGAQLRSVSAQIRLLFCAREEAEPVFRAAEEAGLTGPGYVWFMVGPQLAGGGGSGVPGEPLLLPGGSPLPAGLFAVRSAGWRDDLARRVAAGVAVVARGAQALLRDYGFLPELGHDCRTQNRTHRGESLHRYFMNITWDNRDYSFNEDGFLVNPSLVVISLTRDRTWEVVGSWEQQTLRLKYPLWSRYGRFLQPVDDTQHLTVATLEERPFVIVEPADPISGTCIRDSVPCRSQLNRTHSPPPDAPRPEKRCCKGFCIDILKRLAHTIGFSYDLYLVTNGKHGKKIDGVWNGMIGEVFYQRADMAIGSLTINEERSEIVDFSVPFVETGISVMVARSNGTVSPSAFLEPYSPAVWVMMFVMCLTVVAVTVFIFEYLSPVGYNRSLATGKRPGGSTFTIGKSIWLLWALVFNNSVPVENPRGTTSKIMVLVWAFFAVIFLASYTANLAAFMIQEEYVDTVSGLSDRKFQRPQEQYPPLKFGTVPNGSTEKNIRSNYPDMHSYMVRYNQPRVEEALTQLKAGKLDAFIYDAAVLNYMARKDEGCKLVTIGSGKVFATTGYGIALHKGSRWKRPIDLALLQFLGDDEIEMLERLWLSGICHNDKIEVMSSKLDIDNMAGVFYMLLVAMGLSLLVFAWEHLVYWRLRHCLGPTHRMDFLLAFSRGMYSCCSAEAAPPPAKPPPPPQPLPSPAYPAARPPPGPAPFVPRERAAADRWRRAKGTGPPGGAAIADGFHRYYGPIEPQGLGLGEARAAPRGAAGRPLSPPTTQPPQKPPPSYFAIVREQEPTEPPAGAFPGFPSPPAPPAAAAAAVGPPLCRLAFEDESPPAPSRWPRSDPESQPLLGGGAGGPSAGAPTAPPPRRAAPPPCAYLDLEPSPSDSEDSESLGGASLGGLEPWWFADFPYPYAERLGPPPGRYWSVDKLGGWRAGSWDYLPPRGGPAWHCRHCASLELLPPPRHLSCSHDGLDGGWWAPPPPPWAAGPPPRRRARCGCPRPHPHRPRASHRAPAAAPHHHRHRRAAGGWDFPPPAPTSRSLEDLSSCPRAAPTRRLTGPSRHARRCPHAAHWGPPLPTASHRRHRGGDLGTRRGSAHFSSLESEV
assay_summary: Ray2010 Assay 65
recorded_endpoint: pKi
Give bare numbers, as −log10 of the molar value.

Q: Fill in the blank: the reported pKi of CC[C@H]1C[C@@H]2C[C@H]3c4[nH]c5ccc(OC)cc5c4CCN(C2)[C@@H]13 is ____.
Result: 5.65

---

5-hydroxytryptamine receptor 2B (Homo sapiens, UniProt P41595) data, read-out Ki
Sequence (P41595 whole entry): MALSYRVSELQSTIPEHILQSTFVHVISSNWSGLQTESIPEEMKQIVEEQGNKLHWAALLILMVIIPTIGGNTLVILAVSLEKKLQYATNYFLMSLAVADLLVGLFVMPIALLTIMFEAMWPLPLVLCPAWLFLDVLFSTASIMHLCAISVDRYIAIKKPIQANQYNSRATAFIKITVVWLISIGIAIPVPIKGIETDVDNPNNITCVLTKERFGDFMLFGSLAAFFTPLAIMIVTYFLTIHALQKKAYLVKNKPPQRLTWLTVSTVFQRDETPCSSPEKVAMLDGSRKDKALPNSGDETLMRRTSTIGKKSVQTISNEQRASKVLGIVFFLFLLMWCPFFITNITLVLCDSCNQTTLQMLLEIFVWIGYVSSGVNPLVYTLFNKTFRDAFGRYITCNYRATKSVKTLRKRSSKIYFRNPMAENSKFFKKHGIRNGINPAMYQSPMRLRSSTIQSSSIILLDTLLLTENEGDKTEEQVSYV
One number for each entry, in µM.

Before answering, review these 3 worked examples.
>  <molecule>
COc1cc(CC(C)N)cc(OC)c1OC (stereo not drawn)

>  <Ki / µM>
0.477

$$$$
>  <molecule>
CCc1cc(OC)c(CC(C)N)cc1OC (stereo not drawn)

>  <Ki / µM>
0.0288

$$$$
>  <molecule>
CCOc1cc(OC)c(CC(C)N)cc1OC (stereo not drawn)

>  <Ki / µM>
0.0645

$$$$

Fill in Ki for each of the 7 molecules listed.
1. COc1cc(CC(C)N)c(OC)cc1Br (stereo not drawn)
2. CCCN(CCC)CCc1c[nH]c2ccccc12
3. CCSc1cc(OC)c(CCN)cc1OC
4. CNC(C)Cc1ccc2c(c1)OCO2 (stereo not drawn)
5. NCCc1c2c(c(Br)c3c1OCC3)OCC2
6. C[C@@H]1C[C@H](C)N1C(=O)C1C=C2c3cccc4[nH]cc(c34)C[C@H]2N(C)C1 (stereo partly drawn) [cis-2a]
7. CCSc1cc(OC)c(CC(N)CC)cc1OC (stereo not drawn)

Result:
[0.0039, 0.042, 0.006, 0.5, 0.0009, 0.044, 0.0581]

Fill in Ki for each of the 2 molecules listed.
1. COc1cc(OC)c(OC)cc1CC(C)N (stereo not drawn)
2. C[C@@H]1C[C@@H](C)N1C(=O)C1C=C2c3cccc4[nH]cc(c34)C[C@H]2N(C)C1 (stereo partly drawn) [rr-2b]

Result:
0.154
0.312

Q: Fill in the blank: the reported Ki of CC(N)Cc1ccc2c(c1)OCO2 (stereo not drawn) is ____.
Result: 0.091

---

Task for the reader: assign each of the following compounds its reported pKi.
target_or_system: Neuronal acetylcholine receptor subunit alpha-2/beta-2 (Homo sapiens, UniProt P17787+Q15822)
Sequence (P17787 whole entry): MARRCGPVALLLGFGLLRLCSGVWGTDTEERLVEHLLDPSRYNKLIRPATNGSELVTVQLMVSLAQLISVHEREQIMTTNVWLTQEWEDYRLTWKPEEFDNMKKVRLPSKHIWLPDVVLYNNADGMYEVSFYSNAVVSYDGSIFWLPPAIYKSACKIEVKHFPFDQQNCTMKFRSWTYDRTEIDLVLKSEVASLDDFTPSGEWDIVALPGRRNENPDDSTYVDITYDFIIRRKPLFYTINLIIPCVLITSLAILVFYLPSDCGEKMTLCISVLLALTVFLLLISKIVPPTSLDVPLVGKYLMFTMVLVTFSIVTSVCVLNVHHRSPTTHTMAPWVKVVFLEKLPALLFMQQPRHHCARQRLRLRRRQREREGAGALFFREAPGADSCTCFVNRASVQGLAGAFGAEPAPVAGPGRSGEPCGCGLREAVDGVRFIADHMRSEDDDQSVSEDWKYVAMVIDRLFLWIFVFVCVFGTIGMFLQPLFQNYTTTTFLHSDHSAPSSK
Sequence (Q15822 whole entry): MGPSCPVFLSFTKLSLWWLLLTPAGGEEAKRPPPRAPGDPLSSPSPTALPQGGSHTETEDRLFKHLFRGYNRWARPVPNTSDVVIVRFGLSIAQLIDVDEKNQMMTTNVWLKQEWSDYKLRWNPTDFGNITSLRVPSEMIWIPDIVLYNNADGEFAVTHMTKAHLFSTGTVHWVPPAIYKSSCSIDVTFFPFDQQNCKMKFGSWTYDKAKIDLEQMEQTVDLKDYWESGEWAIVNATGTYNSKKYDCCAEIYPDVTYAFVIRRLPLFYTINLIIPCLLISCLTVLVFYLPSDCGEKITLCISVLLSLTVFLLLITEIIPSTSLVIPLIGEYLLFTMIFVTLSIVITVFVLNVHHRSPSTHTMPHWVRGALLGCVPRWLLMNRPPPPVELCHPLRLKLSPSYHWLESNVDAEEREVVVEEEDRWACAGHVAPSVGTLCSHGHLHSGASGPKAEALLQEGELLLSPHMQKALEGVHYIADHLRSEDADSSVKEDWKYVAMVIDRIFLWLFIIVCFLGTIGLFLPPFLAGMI
assay_summary: Ray2010 Assay 74
Excerpt: Table S2 shows raw Ki data for the current study combined with data collected from the literature for the ten additional compounds.
pKi: −log10 of the molar value.

Before answering, review these 3 worked examples.
>  <compound>
NCCc1c2c(c(Br)c3c1OCC3)OCC2

>  <pKi>
< 5.00

$$$$
>  <compound>
CCN(CC)C(=O)[C@@H]1C=C2c3cccc4[nH]cc(c34)C[C@H]2N(C)C1 [[N-methyl-3H]LSD]

>  <pKi>
< 5.00

$$$$
>  <compound>
C[C@@H]1C[C@H](C)N1C(=O)C1C=C2c3cccc4[nH]cc(c34)C[C@H]2N(C)C1 (stereo partly drawn) [cis-2a]

>  <pKi>
< 5.00

$$$$

Fill in pKi for each of the 2 compounds listed.
1. COc1cc(CC(C)N)c(OC)cc1C (stereo not drawn)
2. CNC(C)Cc1ccc2c(c1)OCO2 (stereo not drawn) [mdma]

Result:
["< 5.00", "< 5.00"]

---

pKi: −log10 of the molar value.
Histamine H1 receptor (Homo sapiens) data, read-out pKi
Sequence (P35367 whole entry): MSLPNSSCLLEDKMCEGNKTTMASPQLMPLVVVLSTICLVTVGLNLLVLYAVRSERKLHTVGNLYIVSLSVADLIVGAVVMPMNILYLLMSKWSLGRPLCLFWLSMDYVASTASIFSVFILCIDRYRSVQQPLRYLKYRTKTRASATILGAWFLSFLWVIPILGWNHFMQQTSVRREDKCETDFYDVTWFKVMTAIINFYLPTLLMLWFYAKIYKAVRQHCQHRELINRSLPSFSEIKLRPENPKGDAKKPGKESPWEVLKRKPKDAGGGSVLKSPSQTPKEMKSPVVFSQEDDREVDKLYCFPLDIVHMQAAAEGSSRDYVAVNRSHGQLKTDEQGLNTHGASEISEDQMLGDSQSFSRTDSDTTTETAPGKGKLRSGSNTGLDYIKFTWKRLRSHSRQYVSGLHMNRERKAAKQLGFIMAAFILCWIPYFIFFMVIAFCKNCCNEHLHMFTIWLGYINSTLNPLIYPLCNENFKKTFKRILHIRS

Before answering, review these 3 worked examples.
>  <molecule>
C[C@@H]1C[C@@H](C)N1C(=O)C1C=C2c3cccc4[nH]cc(c34)C[C@H]2N(C)C1 (some centres not stated) [rr-2b]

>  <pKi>
5.84

$$$$
>  <molecule>
CCOc1cc(OC)c(CC(C)N)cc1OC (configuration not stated)

>  <pKi>
< 5.00

$$$$
>  <molecule>
COc1cc(CCN)cc(OC)c1OC [3,4,5-trimethoxyphenylethylamine]

>  <pKi>
< 5.00

$$$$

Fill in pKi for each of the 5 molecules listed.
1. COc1cc(CCN)c(OC)cc1Br
2. CCc1cc(OC)c(CCN)cc1OC
3. CCSc1cc(OC)c(CC(C)N)cc1OC (configuration not stated)
4. CNC(C)Cc1ccc2c(c1)OCO2 (configuration not stated) [mdma]
5. CCCN(CCC)CCc1c[nH]c2ccccc12 [dpt]

Result:
< 5.00
< 5.00
< 5.00
< 5.00
6.90

Fill in pKi for each of the 8 molecules listed.
1. CCc1cc(OC)c(CC(C)N)cc1OC (configuration not stated)
2. COc1cc(CC(C)N)cc(OC)c1OC (configuration not stated)
3. COc1cc(CC(C)N)c(OC)cc1Br (configuration not stated)
4. CC(C)N(CCc1c[nH]c2ccccc12)C(C)C [dipt]
5. C[C@@H]1C[C@H](C)N1C(=O)C1C=C2c3cccc4[nH]cc(c34)C[C@H]2N(C)C1 (stereo partly drawn) [cis-2a]
6. COc1ccc2[nH]cc(CCN(C(C)C)C(C)C)c2c1 [5-meo-dipt]
7. CCSc1cc(OC)c(CC(N)CC)cc1OC (configuration not stated)
8. COc1ccc2[nH]cc(CCN(C)C(C)C)c2c1 [5-meo-mipt]

Result:
1. < 5.00
2. < 5.00
3. 5.04
4. 5.45
5. 6.30
6. < 5.00
7. < 5.00
8. 5.32

Fill in pKi for each of the 4 molecules listed.
1. COc1ccc2[nH]c(C)c(CCN(C)C)c2c1
2. CCc1[nH]c2ccc(OC)cc2c1CCN(C)C [2-ethyl-5-methoxy-N,N-dimethyltryptamine]
3. NCCc1c2c(c(Br)c3c1OCC3)OCC2
4. COc1cc(OC)c(OC)cc1CC(C)N (configuration not stated)

Result:
1: < 5.00; 2: < 5.00; 3: 5.24; 4: 5.85

Fill in pKi for each of the 7 molecules listed.
1. CCSc1cc(OC)c(CCN)cc1OC [2C-T-2]
2. CC[C@H]1C[C@@H]2C[C@H]3c4[nH]c5ccc(OC)cc5c4CCN(C2)[C@@H]13
3. CN(C)CCc1c[nH]c2cccc(O)c12 [4-hydroxy-N,N-dimethyltryptamine]
4. C[C@@H]1C[C@@H](C)N1C(=O)C1C=C2c3cccc4[nH]cc(c34)C[C@H]2N(C)C1 (some centres not stated) [ss-2c]
5. COc1cc(CC(C)N)c(OC)cc1C (configuration not stated)
6. CN(C)CCc1c[nH]c2cc(F)ccc12 [6-f-dmt]
7. COC(=O)[C@@H]1C[C@H](OC(C)=O)C(=O)[C@H]2[C@@]1(C)CC[C@H]1C(=O)O[C@H](c3ccoc3)C[C@]21C

Result:
1. < 5.00
2. < 5.00
3. < 5.00
4. 5.60
5. < 5.00
6. 7.33
7. < 5.00

---

target_or_system: Muscarinic acetylcholine receptor M2 (Rattus norvegicus)
Sequence (P10980 whole entry): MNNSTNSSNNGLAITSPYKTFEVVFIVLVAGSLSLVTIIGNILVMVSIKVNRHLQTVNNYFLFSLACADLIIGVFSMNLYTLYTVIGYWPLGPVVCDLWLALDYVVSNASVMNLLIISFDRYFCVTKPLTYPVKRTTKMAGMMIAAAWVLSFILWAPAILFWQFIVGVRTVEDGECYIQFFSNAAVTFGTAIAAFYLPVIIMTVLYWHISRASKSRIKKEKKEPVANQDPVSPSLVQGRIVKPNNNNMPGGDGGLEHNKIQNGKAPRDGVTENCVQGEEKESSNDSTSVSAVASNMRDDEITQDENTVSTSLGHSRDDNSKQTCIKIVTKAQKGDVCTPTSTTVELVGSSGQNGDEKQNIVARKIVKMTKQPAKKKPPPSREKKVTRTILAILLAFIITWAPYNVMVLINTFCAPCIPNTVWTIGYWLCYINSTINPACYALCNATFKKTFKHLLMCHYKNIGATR
assay_summary: Ray2010 Assay 50
recorded_endpoint: IC50 (µM)
Numbers only, in µM.

Q: Fill in the blank: the reported IC50 of CC[C@H]1C[C@@H]2C[C@H]3c4[nH]c5ccc(OC)cc5c4CCN(C2)[C@@H]13 is ____.
Result: 5.9

---

Task for the reader: assign each of the following molecules its reported Ki.
target_or_system: Sigma intracellular receptor 2 (Homo sapiens)
Sequence (Q5BJF2 whole entry): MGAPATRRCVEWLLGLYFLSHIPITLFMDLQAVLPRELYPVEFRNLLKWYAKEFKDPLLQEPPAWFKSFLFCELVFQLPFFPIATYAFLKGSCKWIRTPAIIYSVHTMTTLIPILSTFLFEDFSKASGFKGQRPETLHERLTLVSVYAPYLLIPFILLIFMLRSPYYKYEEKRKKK
assay_summary: Ray2010 Assay 74
Answers are plain numbers, in µM.

Before answering, review these 4 worked examples.
>  <smi>
CCCN(CCC)CCc1c[nH]c2ccccc12

>  <Ki / µM>
2.92

$$$$
>  <smi>
CN(C)CCc1c[nH]c2cc(F)ccc12

>  <Ki / µM>
7.13

$$$$
>  <smi>
COc1ccc2[nH]cc(CCN(C)C(C)C)c2c1

>  <Ki / µM>
0.918

$$$$
>  <smi>
CC[C@H]1C[C@@H]2C[C@H]3c4[nH]c5ccc(OC)cc5c4CCN(C2)[C@@H]13

>  <Ki / µM>
0.206

$$$$

Consider the additional molecule presented here.
Q: Fill in the blank: the reported Ki of CC(C)N(CCc1c[nH]c2ccccc12)C(C)C is ____.
Result: 2.7
